Source listed as PubChem BioAssay.

Assay: S. cerevisiae RM11-1a growth modifiers, primary screen, strain RM11-1a, OD600, basal, 24 h (AID 1177);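 also: cultures grown under basal conditions with no added stressor; test concentration not given here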
Details: OD600, 24 h, higher = more signal, called active from +8 up or from −8 down
The source made the active and inactive calls.
Parameter: z-score

# get_value(readout='z-score', item= O=C1[C@H]2[C@H]3[C@H](O)[C@H](O)CC(=NO[C@@H]4O[C@H](CO)[C@@H](O)[C@H](O)[C@H]4O)[C@@H]3CC[C@H]2C(=O)N1c1cccc(Oc2ccccc2)c1 )
0.0867 (inactive)

// lookup z-score for CC(=O)OC[C@H]1O[C@H](CC=NO[C@@H](C)c2cc(-c3c(C)cc(C)cc3C)no2)C=C[C@@H]1OC(C)=O
0.142 (inactive)

Entry COc1ccc(COC(=O)NN=C2C[C@@H](O)[C@@H](O)[C@@H]3[C@@H]4C(=O)N(C(C)(C)C)C(=O)[C@@H]4CC[C@@H]23)cc1 : reported z-score = ?
-1.06 (inactive)

Look at this molecule and give its reported z-score. C[C@@H]1CC[C@H]2C(=O)N3[C@@H](CC[C@@H](C)[C@@H]3c3ccc(Br)cc3)C(=O)N2[C@H]1c1ccc(Br)cc1
0.973 (inactive)

---

Test: P. aeruginosa biofilm formation inhibitors, primary screen, PAO1 strain, BacTiter-Glo luminescence, LB-PBS (AID 1144)
Settings: 12 h, higher = more signal
// label = Yes if z-score is not less than -0.2, otherwise No

Examples from the recorded data:
CC(CCC(=O)OC[C@H]1O[C@H](C#Cc2ccccc2)C=C[C@@H]1Oc1ccc(C)cc1)=NOC[C@@H](C)[C@H](OCc1ccccc1)C(C)C = Yes
CC(C)=CCCC(C)=CCON=C1[C@H]2CCn3c(=O)n(-c4ccccc4)c(=O)n3[C@H]2[C@H](O)[C@@H]2O[C@H]12 = Yes
CCN1C(=O)[C@H]2[C@H]3[C@H](O)[C@H](O)CC(=NO[C@@H](C)c4cc(-c5c(C)cc(C)cc5C)no4)[C@@H]3CC[C@H]2C1=O = Yes
CC(=O)OC[C@H]1O[C@H](CC=NOC(C)CN2CCCc3nc(C)c(C)cc32)C=C[C@@H]1OC(C)=O (some centres undefined) = Yes
COC(=O)[C@H](C)NC(=O)CCC1CC(OC(=O)NCCc2ccc(F)cc2)CC2(CCCC(COC(=O)NCCOc3ccccc3)O2)O1 (some centres undefined) = Yes

Check if z-score >= -0.2 (inclusive). Item: COC(=O)[C@H](C)NC(=O)CCC1CC(OC(=O)NCc2ccc3c(c2)OCO3)CC2(CCCC(COC(=O)NCCC(C)C)O2)O1 (some centres undefined)
Yes

Could you verify whether the entry CC(=O)OC[C@H]1O[C@H](CC=NO[C@H](C)c2cn([C@@H]3COC[C@H]3O)nn2)C=C[C@@H]1OC(C)=O shows z-score of no less than -0.2?
No

Exam item: decide whether the reported z-score for C[C@H]1CC[C@H]2C(=O)OC(COc3ccc(C(C)(C)C)cc3)CN2[C@@H]1c1ccc(Br)cc1 (some centres undefined) is at least -0.2.
No

API: above_or_equal(metric=z-score, cutoff=-0.2) for item O=C1[C@H]2[C@H]3[C@H](O)[C@H](O)CC(=NO[C@@H]4O[C@H](CO)[C@@H](O)[C@H](O)[C@H]4O)[C@H]3CC[C@H]2C(=O)N1C[C@@H]1CCCO1
Yes
